Molecular target: T1, human TREM2 (human, UniProt Q9NZC2 19-174, limits assumed)
T1 construct: also called triggering receptor expressed on myeloid cells 2
T1 sequence: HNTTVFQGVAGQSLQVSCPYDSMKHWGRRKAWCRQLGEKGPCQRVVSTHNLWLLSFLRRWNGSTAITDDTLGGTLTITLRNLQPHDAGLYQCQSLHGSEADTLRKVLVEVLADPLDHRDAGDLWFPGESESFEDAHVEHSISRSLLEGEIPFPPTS
Assay: 1st screen, 10 nM Ab
measure: Binding Signal

{"binder": "V2 (antibody, V domains shown, also called 6E7 variant V2) VH: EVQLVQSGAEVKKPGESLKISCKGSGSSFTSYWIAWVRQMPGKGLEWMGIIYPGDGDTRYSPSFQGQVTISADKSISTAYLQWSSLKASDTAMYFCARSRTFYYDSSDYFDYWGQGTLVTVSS VL: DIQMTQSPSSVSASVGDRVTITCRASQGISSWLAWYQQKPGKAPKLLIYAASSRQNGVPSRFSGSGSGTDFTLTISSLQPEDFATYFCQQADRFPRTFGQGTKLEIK", "Binding Signal": "2.55 fold over 6E7 parental antibody"}
{"binder": "V39 (antibody, V domains shown, also called 6E7 variant V39) VH: EVQLVQSGAEVKKPGESLKISCKGSGYSFGSYWIAWVRQMPGKGLEWMGIIYPGDSDTRYNPSFQGQVTISADKSISTAYLQWSSLKASDTAMYFCARGRTFYYDSSDYFDYWGQGTLVTVSS VL: DIQMTQSPSSVSASVGDRVTITCRASQGISSWLAWYQQKPGKAPKLLIYAASSLVNGVPSRFSGSGSGTDFTLTISSLQPEDFATYFCQQADSSPRTFGQGTKLEIK", "Binding Signal": "6.15 fold over 6E7 parental antibody"}

Proceeding to the next binder to report its Binding Signal.
Problem: Reported Binding Signal for V50 (antibody, V domains shown, also called 6E7 variant V50) VH: EVQLVQSGAEVKKPGESLKISCKGSGYSFGSYWIAWVRQMPGKGLEWMGVIYPGDSDTRYSPSFQGQVTISADKSISTAYLQWSSLKASDTAMYFCARQRTFYYDSSDYLDYWGQGTLVTVSS VL: DIQMTQSPSSVSASVGDRVTITCRASQGISSWLAWYQQKPGKAPKLLIYAASSRQNGVPSRFSGSGSGTDFTLTISSLQPEDFATYFCQQADSLPRTFGQGTKLEIK : what is it?
Result: 4.1 fold over 6E7 parental antibody
